- Substrate: CC(=O)CC(=O)SCCNC(=O)CCNC(=O)[C@H](O)C(C)(C)COP(=O)(O)OP(=O)(O)OC[C@H]1O[C@@H](n2cnc3c(N)ncnc32)[C@H](O)[C@@H]1OP(=O)(O)O
- test summary: purified protein
- Format: biochemical, Caenorhabditis elegans
- recorded conditions: 100 µM NADH (saturating), 0.1 M citrate/phosphate pH 7.0, 0.1 mM dithiothreitol, 298 K, 23 nM protein, AACoA 30-70 µM, 25.0 °C
Items are presented alongside their recorded Km.
The figure you give is taken to be in µM; do not add the unit.

protein: 3-hydroxyacyl-CoA dehydrogenase from C. elegans, R204A/Y209A mutant (enzyme, Caenorhabditis elegans, 3-hydroxyacyl-CoA dehydrogenase (cHAD), Caenorhabditis elegans, WormBase WBGene00010035, GenBank CAA80153.1; as m1 with R204A and Y209A; Made by overlapping PCR from the wild type plasmid, ligated into pEXS-CG (BamHI, EcoRI); also called cHAD R204A/Y209A; source: E. coli BL21 (DE3), purified (same procedure as the wild type); not shown: GST, C-terminal, cleaved) MFTAKCAMQNIRNVAIVGSGQMGSGIAQVTASSGFNVMLADVNKKALDRAMKAISQSVTHLSKKQKGTDKEKSDFVTLTMSRIKTCNNVSTAVADADLIIEAAIENIDLKRGIFAQIEQSCKKDSILTTNTSSFLLEDVAKGLQDKTRFGGLHFFNPVPVMKLLEVIRSDDTSDETYATLIKFGTAVGKTTVACKDSPGFIVNALLIPAFFEAARMYERGDASMTDIDEAMKLGAGHPMGPFELADYIGLDTVKFVMDGWAAKYPEVQLFEASPLVDKLVAEGKLGRKTGDGFYSYKK
test readout: Km
endpoint result: 115.6

protein: 3-hydroxyacyl-CoA dehydrogenase from C. elegans, Y209A mutant (enzyme, Caenorhabditis elegans, 3-hydroxyacyl-CoA dehydrogenase (cHAD), Caenorhabditis elegans, WormBase WBGene00010035, GenBank CAA80153.1; as m1 with Y209A; Made by overlapping PCR from the wild type plasmid, ligated into pEXS-CG (BamHI, EcoRI); also called cHAD Y209A; source: E. coli BL21 (DE3), purified (same procedure as the wild type); not shown: GST, C-terminal, cleaved) MFTAKCAMQNIRNVAIVGSGQMGSGIAQVTASSGFNVMLADVNKKALDRAMKAISQSVTHLSKKQKGTDKEKSDFVTLTMSRIKTCNNVSTAVADADLIIEAAIENIDLKRGIFAQIEQSCKKDSILTTNTSSFLLEDVAKGLQDKTRFGGLHFFNPVPVMKLLEVIRSDDTSDETYATLIKFGTAVGKTTVACKDSPGFIVNRLLIPAFFEAARMYERGDASMTDIDEAMKLGAGHPMGPFELADYIGLDTVKFVMDGWAAKYPEVQLFEASPLVDKLVAEGKLGRKTGDGFYSYKK
test readout: Km
endpoint result: 50.4

// switching to the query protein
q: Need Km of 3-hydroxyacyl-CoA dehydrogenase from C. elegans, R204A mutant (enzyme, Caenorhabditis elegans, 3-hydroxyacyl-CoA dehydrogenase (cHAD), Caenorhabditis elegans, WormBase WBGene00010035, GenBank CAA80153.1; as m1 with R204A; Made by overlapping PCR from the wild type plasmid, ligated into pEXS-CG (BamHI, EcoRI); also called cHAD R204A; source: E. coli BL21 (DE3), purified (same procedure as the wild type); not shown: GST, C-terminal, cleaved) MFTAKCAMQNIRNVAIVGSGQMGSGIAQVTASSGFNVMLADVNKKALDRAMKAISQSVTHLSKKQKGTDKEKSDFVTLTMSRIKTCNNVSTAVADADLIIEAAIENIDLKRGIFAQIEQSCKKDSILTTNTSSFLLEDVAKGLQDKTRFGGLHFFNPVPVMKLLEVIRSDDTSDETYATLIKFGTAVGKTTVACKDSPGFIVNALLIPYFFEAARMYERGDASMTDIDEAMKLGAGHPMGPFELADYIGLDTVKFVMDGWAAKYPEVQLFEASPLVDKLVAEGKLGRKTGDGFYSYKK , thanks.
a: 83.2
